Cited source for all entries: paper PMC7851395

Test system: PC-9 cells
Assay: MTT cytotoxicity assay, PC-9 cells
Assay type: cell-based
Details: Homo sapiens, PC-9, 48 h, PC-9 cells, 48 h, MTT; read-out: IC50
reported.metric: IC50 (nM)
// units = nM; emit number, no label

[Q] Fill in the blank: the reported IC50 of CC(=O)OC1CCC2(C)C(CCC3C2CCC2(C)C(c4ccc(=O)oc4)CCC32O)C1 (stereo not shown) is ____.
[A] 64

###

Here, each record is paired with measured pIC50 data.
Test system: H460 cells
Assay: MTT cytotoxicity assay, H460 cells
Format: cell-based
Settings: Homo sapiens, NCI-H460
In plain terms, pIC50 is the concentration in mol/L turned into minus its base-10 logarithm.

{"compound": "C[C@]12CC[C@H](O)C[C@H]1CC[C@@H]1[C@@H]2CC[C@]2(C)[C@@H](c3ccc(=O)oc3)CC[C@]12O [bufalin, reference compound]", "reported.metric": "pIC50", "recorded.result": 7.19}

Lab note: next compound to report on.
[Q] Please give the measured pIC50 for this compound: C[C@]12CC[C@H](O)C[C@H]1CC[C@@H]1[C@@H]2CC[C@]2(C)[C@@H](c3ccc(=O)oc3)C[C@H]3O[C@]132 [Resibufogenin]
[A] 5.97

###

Test system: PC-9 cells
Assay: MTT cytotoxicity assay, PC-9 cells
Format: cell-based
Conditions: Homo sapiens, PC-9, 48 h
reported.metric: IC50 (nM)
Respond with the bare value in nM.

{"molecule": "C[C@]12CC[C@H](OC(=O)CCCC[C@@H]3SC[C@@H]4NC(=O)N[C@@H]43)C[C@H]1CC[C@@H]1[C@@H]2CC[C@]2(C)[C@H](c3ccc(=O)oc3)CC[C@@]12O [bio-bufalin]", "IC50 / nM": 77.1}

Here's the next entry for you.
[Q] Fill in the recorded IC50 for this molecule, with PC-9 cells as test system: C[C@]12CC[C@H](O)C[C@H]1CC[C@@H]1[C@@H]2CC[C@]2(C)[C@@H](c3ccc(=O)oc3)CC[C@]12O [bufalin, reference compound]
[A] 141

###

System: NSCLC cells (PC-9, A549 or H460)
Test: cells
Type: cell-based, human
Conditions: Homo sapiens, Supplementary Table 1, cell line (PC-9, A549 or H460) not assignable
reported.metric: IC50 (nM)
The response must be a number in nM with no trailing unit.

Please review the entries below; each comes with its answer.
{"compound": "CC(=O)O[C@H]1[C@H]2O[C@]23[C@@H]2CC[C@]4(O)C[C@@H](O)CC[C@]4(C)[C@H]2CC[C@]3(C)[C@H]1c1ccc(=O)oc1 [Cinobufotalin]", "subject.of.test": "NSCLC cells (PC-9, A549 or H460)", "recorded.result": 587}
{"compound": "CC(=O)O[C@H]1[C@H]2O[C@]23[C@@H]2CC[C@@H]4C[C@@H](O)CC[C@]4(C)[C@H]2CC[C@]3(C)[C@H]1c1ccc(=O)oc1 [Cinobufagin]", "subject.of.test": "NSCLC cells (PC-9, A549 or H460)", "recorded.result": 414}

Turning now to a further record.
[Q] Fill blank: measured IC50 of the compound CC(=O)O[C@H]1C[C@]2(O)[C@@H]3CC[C@@H]4C[C@@H](O)CC[C@]4(C)[C@H]3CC[C@]2(C)[C@H]1c1ccc(=O)oc1 [Bufotalin] is ____.
[A] 813
